target-of-assay: human SGLT-2 (Homo sapiens, UniProt P31639)
Sequence (P31639 whole entry): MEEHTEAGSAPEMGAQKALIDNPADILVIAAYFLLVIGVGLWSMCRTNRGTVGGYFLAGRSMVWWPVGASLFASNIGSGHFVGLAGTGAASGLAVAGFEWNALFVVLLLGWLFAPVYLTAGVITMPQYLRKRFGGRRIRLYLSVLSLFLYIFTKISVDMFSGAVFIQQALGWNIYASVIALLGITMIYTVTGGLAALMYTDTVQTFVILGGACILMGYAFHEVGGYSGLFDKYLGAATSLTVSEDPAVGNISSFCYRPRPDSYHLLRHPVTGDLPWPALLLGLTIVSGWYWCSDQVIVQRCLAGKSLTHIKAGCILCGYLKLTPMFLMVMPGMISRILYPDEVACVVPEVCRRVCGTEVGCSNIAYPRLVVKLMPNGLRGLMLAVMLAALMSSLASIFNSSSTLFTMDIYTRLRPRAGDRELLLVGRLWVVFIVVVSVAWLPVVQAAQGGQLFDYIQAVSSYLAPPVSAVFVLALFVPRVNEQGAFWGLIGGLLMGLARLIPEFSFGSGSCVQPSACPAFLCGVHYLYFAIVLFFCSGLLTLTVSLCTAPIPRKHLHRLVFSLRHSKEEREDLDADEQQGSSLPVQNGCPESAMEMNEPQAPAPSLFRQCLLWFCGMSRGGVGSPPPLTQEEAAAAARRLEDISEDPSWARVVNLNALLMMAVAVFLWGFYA
measurement-notes: Inhibitory effect on human SGLT-2 (14C-methyl-a-D-glucopyranoside uptake in transfected NIH3T3 cells)
measurement-parameters: NIH3T3 cells expressing human SGLT-2; read-out: IC50 value for inhibiting the human SGLT-2
Method: 0.2% gelatin was plated on a 24-well plate, and the plate was kept overnight. The plate was washed with PBS once before use. […] The mixture was shaked vigorously, and then counted. The inhibition rate of the compound of Example 2 at each of concentrations on the transporting activity was calculated. IC50 value could be determined by nonlinear curve fitting of sample activities vs. sample concentrations. […]
endpoint: IC50 (nM)
// units = nM; emit number, no label

Requested read-out: IC50. Entry: `CS[C@H]1O[C@@H](c2ccc(C)c(Cc3ccc(-c4ccc(F)cc4)s3)c2)[C@H](O)[C@@H](O)[C@@H]1O`
0.172

* * *

target-of-assay: human SGLT-1 (Homo sapiens, UniProt P13866)
Sequence (P13866 whole entry): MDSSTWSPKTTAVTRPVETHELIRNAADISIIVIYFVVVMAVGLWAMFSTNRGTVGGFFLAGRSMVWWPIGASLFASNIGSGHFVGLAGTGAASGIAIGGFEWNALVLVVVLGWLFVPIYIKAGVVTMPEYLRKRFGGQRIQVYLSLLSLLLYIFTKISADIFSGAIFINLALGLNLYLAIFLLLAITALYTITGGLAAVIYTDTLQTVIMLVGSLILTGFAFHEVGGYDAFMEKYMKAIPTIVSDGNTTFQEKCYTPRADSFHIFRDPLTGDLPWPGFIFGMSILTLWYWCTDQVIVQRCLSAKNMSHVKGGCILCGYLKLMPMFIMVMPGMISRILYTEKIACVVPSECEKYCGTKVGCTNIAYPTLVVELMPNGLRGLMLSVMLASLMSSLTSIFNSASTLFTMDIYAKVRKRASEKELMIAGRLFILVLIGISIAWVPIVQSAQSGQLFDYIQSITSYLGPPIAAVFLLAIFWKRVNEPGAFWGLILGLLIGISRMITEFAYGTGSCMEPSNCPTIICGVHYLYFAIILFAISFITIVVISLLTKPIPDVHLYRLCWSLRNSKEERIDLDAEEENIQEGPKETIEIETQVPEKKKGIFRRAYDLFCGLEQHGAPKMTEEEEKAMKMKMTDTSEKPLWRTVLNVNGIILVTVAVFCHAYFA
measurement-notes: Inhibitory effect on human SGLT-1 (14C-methyl-a-D-glucopyranoside uptake in transfected NIH3T3 cells)
measurement-parameters: NIH3T3 cells expressing human SGLT-1; read-out: IC50 value for inhibiting the human SGLT-1
endpoint: IC50 (µM)
// units = µM; emit number, no label

Requested read-out: IC50. Entry: `CS[C@H]1O[C@@H](c2ccc(C)c(Cc3ccc(-c4ccc(F)cc4)s3)c2)[C@H](O)[C@@H](O)[C@@H]1O`
28.7
